test system: Escherichia coli; test: Antibacterial activity against Escherichia coli EC600 by agar dilution method; format: functional
property: MIC

Past entries and their recorded results:
Given item CO/N=C(\C(=O)N[C@@H]1C(=O)N2C(C(=O)[O-])=C(C[N+]3(C)CCCC3)CS[C@H]12)c1csc(N)n1 , the value recorded as its MIC is ≤ 0.125 µg/mL

Given item CO/N=C(\C(=O)N[C@@H]1C(=O)N2C(C(=O)O)=C(COC(C)=O)CS[C@H]12)c1csc(N)n1 [CEFOTAXIME] , the value recorded as its MIC is ≤ 0.125 µg/mL

Given item CO/N=C(\C(=O)N[C@@H]1C(=O)N2C(C(=O)O)=C(CSc3nc(=O)c(O)nn3C)CS[C@H]12)c1csc(N)n1 [CEFTRIAXONE] , the value recorded as its MIC is ≤ 0.125 µg/mL

Given item C[C@@H](O)[C@H]1C(=O)N2C(C(=O)O)=C(SCCNC=N)C[C@H]12 [IMIPENEM ANHYDROUS] , the value recorded as its MIC is ≤ 0.125 µg/mL

Given item CC(C)(O/N=C(\C(=O)N[C@@H]1C(=O)N2C(C(=O)[O-])=C(C[n+]3ccccc3)CS[C@H]12)c1csc(N)n1)C(=O)O [CEFTAZIDIME] , the value recorded as its MIC is 0.25 µg/mL

Next:
Given item C[C@H]1[C@H](NC(=O)/C(=N\OC(C)(C)C(=O)O)c2csc(N)n2)C(=O)N1S(=O)(=O)O [AZTREONAM] , the value recorded as its MIC is ≤ 0.125 µg/mL

Given item CCN1CCN(C(=O)N[C@@H](C(=O)N[C@@H]2C(=O)N3[C@@H]2SC(C)(C)[C@@H]3C(=O)O)c2ccccc2)C(=O)C1=O [PIPERACILLIN] , the value recorded as its MIC is 1 µg/mL
